# Measurement Protocol: Cytotoxicity against human HepG2 cells assessed as cell viability at 100 uM after 24 hrs
# Format: cell-based
# Condition Summary: read-out: Activity
Here the recorded viability at 24 h, 100 µM is given for each entry.

Compound | Unit Of Measurement | viability at 24 h, 100 µM
O=c1cc2c3c4c(cc[n+]3CCC2)c2ccccc2n14.[Cl-] [INFRACTOPICRIN] | % | 99.1
O=c1cc2c3c4c(cc[n+]3CCC2)c2cc(O)ccc2n14.[Cl-] | % | 101

* * *

# Measurement Protocol: Cytotoxicity against human SH-SY5Y cells assessed as cell viability at 100 uM after 24 hrs
# Type: cell-based
# Condition Summary: read-out: Activity
Measured Quantity: viability at 24 h, 100 µM (%)

Structure Smiles | Unit Of Measurement | Endpoint Value
O=c1cc2c3c4c(cc[n+]3CCC2)c2ccccc2n14.[Cl-] | % | 97.7
O=c1cc2c3c4c(cc[n+]3CCC2)c2cc(O)ccc2n14.[Cl-] | % | 98.3

* * *

Here the recorded viability at 24 h, 10 µM is given for each entry.
# Measurement Protocol: Cytotoxicity against human SH-SY5Y cells assessed as cell viability at 10 uM after 24 hrs
# Type: cell-based
# Condition Summary: read-out: Activity
Measured Quantity: viability at 24 h, 10 µM (%)

Structure Smiles | Measured Quantity | Endpoint Value
O=c1cc2c3c4c(cc[n+]3CCC2)c2ccccc2n14.[Cl-] | viability at 24 h, 10 µM | 97.1
O=c1cc2c3c4c(cc[n+]3CCC2)c2cc(O)ccc2n14.[Cl-] | viability at 24 h, 10 µM | 96.7

* * *

IC50 tested on UniProtKB P23795: recorded values
Sequence (P23795 whole entry): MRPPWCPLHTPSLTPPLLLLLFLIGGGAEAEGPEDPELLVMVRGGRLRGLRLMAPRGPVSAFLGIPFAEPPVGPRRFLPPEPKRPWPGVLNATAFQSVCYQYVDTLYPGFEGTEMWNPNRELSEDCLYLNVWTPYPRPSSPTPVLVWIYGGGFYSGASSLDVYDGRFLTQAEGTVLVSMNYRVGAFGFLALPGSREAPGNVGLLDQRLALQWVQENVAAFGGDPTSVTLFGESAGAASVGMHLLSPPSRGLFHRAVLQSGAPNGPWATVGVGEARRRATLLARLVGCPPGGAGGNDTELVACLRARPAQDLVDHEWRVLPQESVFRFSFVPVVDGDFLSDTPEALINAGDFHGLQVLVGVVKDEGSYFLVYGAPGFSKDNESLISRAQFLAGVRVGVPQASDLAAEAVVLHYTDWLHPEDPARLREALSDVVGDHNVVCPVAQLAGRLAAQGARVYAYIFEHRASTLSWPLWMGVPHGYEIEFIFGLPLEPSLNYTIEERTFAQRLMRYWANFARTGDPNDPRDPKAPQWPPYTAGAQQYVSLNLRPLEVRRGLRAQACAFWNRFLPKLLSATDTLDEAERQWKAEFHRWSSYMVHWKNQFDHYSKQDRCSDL

Compound | IC50 (µM)
O=c1cc2c3c4c(cc[n+]3CCC2)c2cc(O)ccc2n14.[Cl-] | 12.7
O=c1cc2c3c4c(cc[n+]3CCC2)c2ccccc2n14.[Cl-] [INFRACTOPICRIN] | 9.72

* * *

Here the recorded viability at 24 h, 10 µM is given for each entry.
# Measurement Protocol: Cytotoxicity against human HepG2 cells assessed as cell viability at 10 uM after 24 hrs
# Format: cell-based
# Condition Summary: read-out: Activity
Measured Quantity: viability at 24 h, 10 µM (%)

Molecule | Endpoint Value
O=c1cc2c3c4c(cc[n+]3CCC2)c2cc(O)ccc2n14.[Cl-] | 98.7
O=c1cc2c3c4c(cc[n+]3CCC2)c2ccccc2n14.[Cl-] [INFRACTOPICRIN] | 100
